Molecular target: Phospho-N-acetylmuramoyl-pentapeptide-transferase (Bacillus subtilis (strain 168))
Sequence (Q03521 whole entry): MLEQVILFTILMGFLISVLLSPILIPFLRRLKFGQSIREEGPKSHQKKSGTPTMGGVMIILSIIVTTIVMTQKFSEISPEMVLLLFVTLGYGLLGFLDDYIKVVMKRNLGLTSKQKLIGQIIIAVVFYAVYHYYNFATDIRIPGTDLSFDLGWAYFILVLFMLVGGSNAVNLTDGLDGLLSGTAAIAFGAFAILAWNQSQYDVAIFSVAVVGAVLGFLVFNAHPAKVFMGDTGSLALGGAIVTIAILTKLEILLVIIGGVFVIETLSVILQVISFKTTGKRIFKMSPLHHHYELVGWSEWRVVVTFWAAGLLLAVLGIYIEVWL
Assay: Inhibition of MraY in Bacillus subtilis

# molecule, IC50, µM
records = [
    ("NC[C@H]1O[C@@H](O[C@@H](c2cn(CCCCCN3CCCCC3)nn2)[C@H]2O[C@@H](n3ccc(=O)[nH]c3=O)[C@H](O)[C@@H]2O)[C@H](O)[C@@H]1O", 150),
    ("CCCCc1ccc(NC(=O)C2=CCN(C)[C@@H]([C@H](O[C@@H]3O[C@H](CN)[C@@H](O)[C@H]3O)[C@H]3O[C@@H](n4ccc(=O)[nH]c4=O)[C@H](O)[C@@H]3O)C(=O)N2C)cc1", 0.581),
    ("NC[C@H]1O[C@@H](O[C@@H](c2cn(CCCCCOc3ccc(C(=O)c4ccccc4)cc3)nn2)[C@H]2O[C@@H](n3ccc(=O)[nH]c3=O)[C@H](O)[C@@H]2O)[C@H](O)[C@@H]1O", 100),
]

Entry source: ChEMBL document CHEMBL4402510
